system: Plasmodium berghei; assay: Screen against P. berghei liver stage (PbLuc), transformed with Luciferase, at 10uM; assay type: functional, HepG2; details: tested at 10 uM
Among all 69,000 compounds or so, about 8,600 (12%) showed an effect of 50% or more. The sample holds strong results, similar compounds and a random draw of the others, so the mix is not that of the screen.
endpointLabel: INHIBITION (%)
Give the value, in units of %, as a plain number.

GET /values?readout=INHIBITION&system=Plasmodium berghei&item= CCc1noc(CCCC(=O)N2CCCC(c3ccn[nH]3)C2)n1 (centres undefined)
42.8

Then what about the compound COc1ccccc1OC1CCN(c2ccncc2)CC1 ?
-2.93

Then what about the compound CC(C)CN(C(=O)Nc1cccnc1)C1CC1 ?
-18.5

Then what about the compound CNC(=O)c1cn[nH]c1C1CCCN1c1nc(C)cc(C)n1 (centres undefined) ?
34.1

====

system: Plasmodium berghei; assay: Screen against P. berghei liver stage (PbLuc), transformed with Luciferase, at 10uM; assay type: functional, HepG2; conditions: tested at 10 uM
Screen size: about 69,000 compounds; about 8,600 (12%) showed an effect of 50% or more. This is one part of a sample in which strong results are shown more often than they occur.
endpointLabel: INHIBITION
Form field: result (number plus unit)

Report INHIBITION for O=C(Nc1cnn(CCN2CCOCC2)c1)c1ccccc1O please.
55.9%

Then what about the compound CCN(CC1CN(Cc2nccn2CC)CCO1)c1cccnn1 (stereo unspecified) ?
41.4%

Then what about the compound COc1ccccc1CNc1c(N2CCN(C(C)=O)CC2)c(=O)c1=O ?
-19.2%

Then what about the compound CNc1snc(C)c1C(=O)NC(C)CC(=O)c1cccs1 (stereo unspecified) ?
44.6%

Then what about the compound CCN(CC1CN(CC2CCC2)CCO1)c1cccnn1 (stereo unspecified) ?
62.8%

Then what about the compound COc1ccc(CNc2c(N3CCN(C)CC3)c(=O)c2=O)cc1 ?
31.8%

Then what about the compound Cc1cccnc1NC(=O)c1ccc(F)c(S(=O)(=O)NC2CC2)c1 ?
20.9%

Then what about the compound Cc1nc(C)c2c(n1)CCN(C(=O)CC1CC1)CC2 ?
19.9%

Then what about the compound COc1ccc(C(=O)c2cnc(C(C)C)n2C)cc1 ?
33.9%

Then what about the compound COc1ccc(CNc2c(N3CCN(C(C)=O)CC3)c(=O)c2=O)cc1 ?
54%

Then what about the compound CCN(CC1CN(Cc2c(C)noc2C)CCO1)c1cccnn1 (stereo unspecified) ?
44.9%

====

I'd appreciate it if you could supply INHIBITION values for the items below.
system: Plasmodium berghei; assay: Screen against P. berghei liver stage (PbLuc), transformed with Luciferase, at 10uM; format: functional, HepG2; conditions: tested at 10 uM
In all, about 69,000 compounds went through this assay and about 8,600 (12%) showed an effect of 50% or more. The sample as a whole holds a higher share of strong results than the screen did.
Form field: result (number plus unit)

GET /values?readout=INHIBITION&system=Plasmodium berghei&item= Cc1ccc(C(=O)N2CCC3(CC2)CC(c2cnn(C)c2)CO3)cn1 (centres undefined)
39.2%

Then what about the compound Cn1cc(C2COC3(CCN(C(=O)c4ccccn4)CC3)C2)cn1 (centres undefined) ?
42.7%

Then what about the compound Cn1cc(C2COC3(CCN(C(=O)c4ccn(C)n4)CC3)C2)cn1 (centres undefined) ?
41.6%

Then what about the compound Cn1cc(C2COC3(CCN(C(=O)c4cccn4C)CC3)C2)cn1 (centres undefined) ?
36.9%

====

tested on: Plasmodium berghei; assay: Screen against P. berghei liver stage (PbLuc), transformed with Luciferase, at 10uM; type: functional, HepG2; details: tested at 10 uM
Out of some 69,000 compounds screened, about 8,600 (12%) showed an effect of 50% or more. Only a selection was taken, and strong results are over-represented in it overall.
I'd appreciate it if you could supply INHIBITION values for the items below.
Give the value, in units of %, as a plain number.

Report INHIBITION for Cc1ccc(C(=O)N2CCC3(CCN(c4ccsc4)C3=O)C2)cn1 (stereo unspecified) please.
-14.3

Then what about the compound CCN1CCc2c(cccc2NC(=O)N(C)C2CCSC2)C1 (stereo unspecified) ?
50.8

Then what about the compound Cc1ccccc1CNc1ccc(S(N)(=O)=O)c(C(F)(F)F)c1 ?
93.4

Then what about the compound CCN1CCN(c2ccccc2NC(=O)N(C)C2CCSC2)CC1 (stereo unspecified) ?
74.9

Then what about the compound O=C1NCc2ccccc2CC12CCN(Cc1c(F)cccc1Cl)C2 (stereo unspecified) ?
-9.73

Then what about the compound CC(Nc1cnn(C)c(=O)c1Cl)c1ccc(F)c(F)c1 (stereo unspecified) ?
68.9

Then what about the compound Cc1ccc(OC2CCN(CCn3cncn3)CC2)cc1 ?
86.8

Then what about the compound Cc1nccn1-c1ccc(C(C)Nc2cnn(C)c(=O)c2Cl)cc1 (stereo unspecified) ?
52.6

Then what about the compound CCCS(=O)(=O)NCC(O)c1c(Cl)cccc1Cl (stereo unspecified) ?
0.87

Then what about the compound CC(C)(C)C(=O)NCCc1cc2nc(-c3ccncc3)ccn2n1 ?
24.44

Then what about the compound COCC1COCCC12CCN(C(=O)CC1Cc3ccccc3C1)CC2 (stereo unspecified) ?
23.6

Then what about the compound Cc1cccc(CN2C[C@@H]3COC[C@]3(CNC(=O)c3ccno3)C2)n1 ?
-30

Then what about the compound O=C(c1ccsc1)N1CCO[C@@H]2CN(Cc3cccs3)C[C@@H]2C1 ?
-2.46

Then what about the compound CC(NC(=O)N1CCS(=O)(=O)CC1)c1c(F)cccc1Cl (stereo unspecified) ?
-5.275

Then what about the compound CS(=O)(=O)N1CCN(c2ccc(Nc3ccccn3)nn2)CC1 ?
21.5

Then what about the compound COc1cccc(CC(=O)N2CCN(C)c3ncccc3C2)c1 ?
-93

Then what about the compound COc1ccc(C(C)Nc2ncc(C(N)=O)cc2Cl)cc1F (stereo unspecified) ?
-138

Then what about the compound CCc1[nH]nc(NC(=O)c2cc[nH]n2)c1C ?
0.342

Then what about the compound Cn1ncc(NCc2cc(F)cc(F)c2)c(Cl)c1=O ?
8.48

Then what about the compound COc1ccc2c(c1)CCCN(C(C)C(=O)NC(C)C)C2 (stereo unspecified) ?
-9.87

Then what about the compound Cc1nc2c(c(Nc3ccccn3)n1)CN(S(C)(=O)=O)CC2 ?
-10.4

Then what about the compound Cc1nn(C)cc1CN1CCc2c(nc(-c3ccccn3)[nH]c2=O)C1 ?
38.8

Then what about the compound Cc1cc(CNC(=O)CCc2c(C)nc3cc(O)nn3c2C)no1 ?
15.5

Then what about the compound CCCn1nccc1NC(=O)CN1CCC[C@H]1CO ?
-72.2

Then what about the compound NS(=O)(=O)c1ccc(NCc2ccccc2)cc1C(F)(F)F ?
77.7

Then what about the compound Fc1ccc(OC2CCN(CCn3cncn3)CC2)cc1 ?
-5.69

Then what about the compound CC(C)NC(=O)CNC(C)c1c(F)cccc1Cl (stereo unspecified) ?
31.2

Then what about the compound NC(=O)CNC(c1ccccc1)c1ccccc1 ?
6.67

Then what about the compound O=C(COC1CCCC1)NCc1ccc(O)c(F)c1 ?
-16.4

Then what about the compound Cc1cc(C)n(CCCN(CCN2CCOCC2)Cc2ccco2)n1 ?
7.6

Then what about the compound O=c1ccc2c(n1Cc1cccnc1)CCN(C1CCOC1)CC2 (stereo unspecified) ?
39.4

====

system: Plasmodium berghei; assay: Screen against P. berghei liver stage (PbLuc), transformed with Luciferase, at 10uM; assay type: functional, HepG2; details: tested at 10 uM
Screen size: about 69,000 compounds; about 8,600 (12%) showed an effect of 50% or more. For the sample, strong results were picked, then their nearest neighbours and some compounds at random.
I'd appreciate it if you could supply INHIBITION values for the items below.
Give the value, in units of %, as a plain number.

GET /values?readout=INHIBITION&system=Plasmodium berghei&item= CNc1nc(C)c(C(=O)N2CCCCC2CCc2ccccc2)s1 (stereo not given)
-14.7

Then what about the compound Cc1cccc(C(=O)N2CCCSCC2CN2CCCC2)c1 (stereo not given) ?
-19.7

Then what about the compound Cn1cc(C(=O)N2CC[C@@H]3[C@@H]2CCN3Cc2cccc(C#N)c2)cn1 ?
41.6

Then what about the compound NC1(CNC(=O)c2cc3ccccc3[nH]2)CCCC1 ?
-8.28

Then what about the compound Cc1cc(C(=O)N2CCCC2CN2CCCC2)no1 (stereo not given) ?
61.1

====

tested on: Plasmodium berghei; experiment: Screen against P. berghei liver stage (PbLuc), transformed with Luciferase, at 10uM; format: functional, HepG2; settings: tested at 10 uM
Out of some 69,000 compounds screened, about 8,600 (12%) showed an effect of 50% or more. This excerpt belongs to a sample that is enriched for strong results.
Please note: INHIBITION exactly at 20% is False. Only values below 20% get True.

INHIBITION strictly < 20% for this compound? O=C(O)c1cc(S(=O)(=O)Nc2ccc(F)cc2Cl)cc2c1OCCO2
False

Then what about the compound Cc1cccc(N2CCN(CCC(=O)NCc3nnc[nH]3)CC2)c1 ?
True

Then what about the compound Cn1cccc1C(=O)NC(C)(C(N)=O)c1cccc(Cl)c1 (stereo not drawn) ?
True

Then what about the compound OC(CN1CCN(Cc2cccc(F)c2)CC1)C1CC1 (stereo not drawn) ?
True

Then what about the compound Cc1cccc(-c2nc(CN3CCCC3Cn3cc(C)cn3)no2)c1 (stereo not drawn) ?
False

Then what about the compound CCc1nn(-c2cc(Oc3ccccc3)nc(C)n2)c(N)c1C#N ?
False

Then what about the compound c1cncc(CN2CCc3ncnc(C4CCOC4)c3CC2)c1 (stereo not drawn) ?
False

Then what about the compound Cc1cnn(CC2CCCN2Cc2noc(-c3ccccc3)n2)c1 (stereo not drawn) ?
False

Then what about the compound CCC(=O)Nc1c(C)nn(COc2cccc(F)c2)c1C ?
False

Then what about the compound Cc1cnn(CC2CCCN2Cc2noc(C)n2)c1 (stereo not drawn) ?
True

Then what about the compound CC(C)c1nccc(N2CCN(CC(=O)N3CCOCC3)CC2)n1 ?
True

Then what about the compound c1cn(-c2ccc(CN3CCOC(Cn4cncn4)C3)cc2)cn1 (stereo not drawn) ?
False

Then what about the compound CCOC(=O)c1cnn(-c2cc(Oc3cc(C)ccc3C)ncn2)c1N ?
True

Then what about the compound O=C(CCCOCc1ccccc1)N1CCCC(n2cncn2)C1 (stereo not drawn) ?
False

Then what about the compound CC(C)C(=O)Nc1ccc(C(O)Cn2nc(-c3cccs3)oc2=O)cc1 (stereo not drawn) ?
True

Then what about the compound O=S1(=O)[C@@H](c2ccccc2)[C@H](CO)CN1C1CC1 ?
True

Then what about the compound CNC(=O)c1c[nH]nc1C1CCCN1c1ncccn1 (stereo not drawn) ?
False

Then what about the compound CCc1nnc2n1CCN(Cc1ncc(-c3ccc(F)cc3)o1)C2 ?
True

Then what about the compound CSc1ncc(C(=O)N2C[C@@H]3CC[C@H]2CN(Cc2ccccc2)C3)cn1 ?
True

Then what about the compound CCCc1cc(=O)n(CC(N)=O)c(-n2nc(C)cc2C)n1 ?
False

Then what about the compound CN(C)C(=O)N[C@H]1CN(Cc2ccc3c(c2)OCO3)[C@@H]2CCCO[C@H]12 ?
False

Then what about the compound CCCc1cc(=O)n(CC(=O)NCCOC)c(-n2nc(C)cc2C)n1 ?
False

Then what about the compound CC(C)CC(=O)N1CCCCC(NC(=O)CCc2cccnc2)C1 (stereo not drawn) ?
False

Then what about the compound Cn1cccc1C(=O)NC(C)(C(N)=O)c1cccc(C(F)(F)F)c1 (stereo not drawn) ?
False

Then what about the compound CCc1nn(-c2cc(Oc3cccc(C)c3)nc(C)n2)c(N)c1C#N ?
True

Then what about the compound CC(NC(=O)CCCC(=O)c1cccs1)c1nnc2n1CCC2 (stereo not drawn) ?
True

Then what about the compound O=C(COc1ccc2c(c1)OCC2O)NCc1ccco1 (stereo not drawn) ?
True

Then what about the compound CCCNC(=O)Cn1c(-n2nc(C)cc2C)nc(CCC)cc1=O ?
False

Then what about the compound CCCC(=O)N1CC[C@@H]2[C@H](CC1)N(Cc1cccnc1)CCS2(=O)=O ?
True

Then what about the compound Cc1cccc(N2CCN(CCC(=O)NCc3cnc(C)cn3)CC2)c1 ?
False

Then what about the compound O=C(NCc1nnc2n1CCC2)N1CCc2sccc2C1 ?
True

Then what about the compound CN(C)Cc1ccccc1CN(C)C(=O)c1ccoc1 ?
True

Then what about the compound O=C(c1ccncn1)N1CCC[C@]2(C[C@H](Oc3ncccc3F)CO2)C1 ?
True
